Known cell viability of a selection of molecules
# Tested on: Calu-3
# assayProcedure: cell viability relative to DMSO; higher = less toxic
# conditionDescription: 72 h; 10 nM
Counter-ions that a name gives are not always drawn.
observationType: cell viability (%)

molecule="COc1cc(C(=O)NCCCCCC(=O)O)cc(OC)c1OC [capobenic-acid]" experimentalsystem=Calu-3 assayvalue=94.9
molecule="C(#CCN1CCCC1)CN1CCCC1 [tremorine]" experimentalsystem=Calu-3 assayvalue=104
molecule="CC(C)=CCC/C(C)=C/CC/C(C)=C/CSc1ccccc1C(=O)O [salirasib]" experimentalsystem=Calu-3 assayvalue=99.6
molecule="CCNC(=O)[C@@H]1CCCN1C(=O)[C@H](CCCNC(=N)N)NC(=O)[C@H](CC(C)C)NC(=O)[C@@H](CC(C)C)NC(=O)[C@H](Cc1ccc(O)cc1)NC(=O)[C@H](CO)NC(=O)[C@H](Cc1c[nH]c2ccccc12)NC(=O)[C@H](Cc1c[nH]cn1)NC(=O)[C@@H]1CCC(=O)N1 [leuprolide]" experimentalsystem=Calu-3 assayvalue=99.3
molecule="CC[C@H]1OC(=O)C[C@@H](O)[C@H](C)[C@@H](O[C@@H]2O[C@H](C)[C@@H](O[C@H]3C[C@@](C)(O)[C@@H](O)[C@H](C)O3)[C@H](N(C)C)[C@H]2O)[C@@H](CC=O)C[C@@H](C)C(=O)/C=C/C(C)=C/[C@@H]1CO[C@@H]1O[C@H](C)[C@@H](O)[C@@H](OC)[C@H]1OC [TYLOSIN TARTRATE]" experimentalsystem=Calu-3 assayvalue=108
molecule="Brc1ccc(NC2C3CC4CC(C3)CC2C4)cc1 (configuration not stated) [bromantan]" experimentalsystem=Calu-3 assayvalue=90.6
molecule=Nc1ncnc2c1C(=O)N(c1ccc([C@H]3CC[C@H](CC(=O)O)CC3)cc1)CCO2 experimentalsystem=Calu-3 assayvalue=99.7

====

# Test system: U2OS
# assayProcedure: cell viability relative to DMSO; higher = less toxic
# conditionDescription: 72 h; 1 nM
Known cell viability of a selection of compounds
observationType: cell viability (%)

compound=O=C(CSc1nc2c(c(=O)n1-c1ccccc1)SCC2)Nc1ccc(-c2ccccc2)cn1 experimentalsystem=U2OS assayvalue=95.4
compound=CC(C)CCNc1ncccc1C(=O)N1CCN(Cc2ccccc2)CC1 experimentalsystem=U2OS assayvalue=97.5
compound=Cc1c(C(=O)NCc2cccnc2)nn(-c2ccc(Cl)cc2Cl)c1-c1ccc(Cl)cc1 experimentalsystem=U2OS assayvalue=99.2
compound=CCOC(=O)Nc1ccc(NCc2ccc(F)cc2)cc1N experimentalsystem=U2OS assayvalue=102
compound=c1cnc(SCc2cccnc2)nc1 experimentalsystem=U2OS assayvalue=101
compound=COC[C@H](NC(=O)c1cnc(C)s1)C(=O)N[C@@H](COC)C(=O)N[C@@H](Cc1ccccc1)C(=O)[C@@]1(C)CO1 experimentalsystem=U2OS assayvalue=103
compound="COC(=O)CCC(=O)CN [methyl-aminolevulinate]" experimentalsystem=U2OS assayvalue=90.5
compound=COc1ccc(N(C(=O)Oc2c(C)cccc2C)c2ccnc(Nc3ccc(N4CCN(C)CC4)cc3)n2)c(OC)c1 experimentalsystem=U2OS assayvalue=101
compound=C=C(C)[C@@H]1CCC(C)=C[C@H]1c1c(OC)cc(C)cc1OC experimentalsystem=U2OS assayvalue=102
compound=CSCC[C@H](NC(=O)[C@H](CC(C)C)NC(=O)CNC(=O)[C@H](Cc1ccccc1)NC(=O)[C@H](Cc1ccccc1)NC(=O)[C@H](CCC(N)=O)NC(=O)[C@H](CCC(N)=O)NC(=O)[C@@H]1CCCN1C(=O)[C@H](CCCCN)NC(=O)[C@@H]1CCCN1C(=O)[C@@H](N)CCCN=C(N)N)C(N)=O experimentalsystem=U2OS assayvalue=99.5
compound=Cc1cnc(C(=O)N[C@H]2CCCCC/C=C\[C@@H]3C[C@@]3(C(=O)NS(=O)(=O)C3CC3)NC(=O)[C@@H]3C[C@@H](Oc4nc5ccccc5c5ccccc45)CN3C2=O)cn1 experimentalsystem=U2OS assayvalue=105
compound=Cc1cc(-c2ncc(CC(=O)Nc3ccc(-c4cnccn4)cn3)cc2C)ccn1 experimentalsystem=U2OS assayvalue=97.4
compound=COc1cc(Cc2cnc(N)nc2N)cc(OC)c1OC experimentalsystem=U2OS assayvalue=92.3
compound=CC(C)(C)C#Cc1cc(N(C(=O)[C@H]2CC[C@H](C)CC2)[C@H]2CC[C@@H](O)CC2)c(C(=O)O)s1 experimentalsystem=U2OS assayvalue=105
compound="CC(CNC1CCCCC1)OC(=O)c1ccccc1 (stereo not given)" experimentalsystem=U2OS assayvalue=103

====

Known cell viability of a selection of compounds
# Tested on: Calu-3
# assayProcedure: cell viability relative to DMSO; higher = less toxic
# conditionDescription: 72 h; 100 nM
observationType: cell viability (%)

smilesstructure=N#C/C(=C\c1ccc(O)c(O)c1)C(=O)OCCc1cccs1 experimentalsystem=Calu-3 unit=% assayvalue=96.1
smilesstructure=O=C(OC[C@H]1O[C@@H](OC(=O)c2cc(O)c(O)c(OC(=O)c3cc(O)c(O)c(O)c3)c2)[C@H](OC(=O)c2cc(O)c(O)c(OC(=O)c3cc(O)c(O)c(O)c3)c2)[C@@H](OC(=O)c2cc(O)c(O)c(OC(=O)c3cc(O)c(O)c(O)c3)c2)[C@@H]1OC(=O)c1cc(O)c(O)c(OC(=O)c2cc(O)c(O)c(O)c2)c1)c1cc(O)c(O)c(OC(=O)c2cc(O)c(O)c(O)c2)c1 experimentalsystem=Calu-3 unit=% assayvalue=98.6
smilesstructure=O=C(COc1ccc(Cl)cc1)N[C@H]1CC[C@H](NC(=O)COc2ccc(Cl)cc2)CC1 experimentalsystem=Calu-3 unit=% assayvalue=101

====

# System: HepG2
# assayProcedure: cell viability relative to DMSO; higher = less toxic
# conditionDescription: 72 h; 1 nM
Counter-ions that a name gives are not always drawn.
observationType: cell viability (%)

molecule="C=CCc1ccc(O)c(-c2ccc(O)c(CC=C)c2)c1 [honokiol]" assayvalue=108
molecule="COCCCOc1ccnc(C[S+]([O-])c2nc3ccccc3[nH]2)c1C (centres undefined) [rabeprazole]" assayvalue=97.6
molecule="Nc1c2c(nc3c1CCC3)CCCC2 [ipidacrine]" assayvalue=101
molecule="Cc1c(C(=O)NCc2cccnc2)nn(-c2ccc(Cl)cc2Cl)c1-c1ccc(Cl)cc1 [MJ-15]" assayvalue=91.8
molecule="COc1cc(-c2ccc(=O)[nH]n2)ccc1OC(F)F [zardaverine]" assayvalue=93.8
molecule="CC(C)(C)NC(=O)[C@@H]1C[C@@H]2CCCC[C@@H]2CN1C[C@@H](O)[C@H](Cc1ccccc1)NC(=O)[C@H](CC(N)=O)NC(=O)c1ccc2ccccc2n1 [saquinavir]" assayvalue=91.8
molecule="CC(C)(C)C#Cc1cc(N(C(=O)[C@H]2CC[C@H](C)CC2)[C@H]2CC[C@@H](O)CC2)c(C(=O)O)s1 [VX-222]" assayvalue=98.7
molecule="CC(C)c1cc(-c2n[nH]c(=O)n2-c2ccc3c(ccn3C)c2)c(O)cc1O [ganetespib]" assayvalue=97.7
molecule="CO[C@H]1/C=C/O[C@@]2(C)Oc3c(C)c(O)c4c(O)c(c(/C=N/N5CCN(C6CCCC6)CC5)c(O)c4c3C2=O)NC(=O)/C(C)=C\\C=C\\[C@H](C)[C@H](O)[C@@H](C)[C@@H](O)[C@@H](C)[C@H](OC(C)=O)[C@@H]1C [rifapentine]" assayvalue=96.4
molecule="NCCCC(O)(P(=O)(O)O)P(=O)(O)O [alendronate]" assayvalue=101
molecule="N[C@]1(C(=O)O)CC[C@@H](C(=O)O)C1 [cis-ACPD]" assayvalue=105
molecule="CCCCCCCCCCCCCCCC(=O)OC(C)C [isopropyl-palmitate]" assayvalue=92.2
molecule="NCc1cc(O)no1 [muscimol]" assayvalue=96.8
molecule="COc1ccc(C2CC(c3ccccc3)=NN2c2ccc(S(N)(=O)=O)cc2)cc1 (centres undefined) [ML141]" assayvalue=106
molecule="O=Cc1cn(Cc2ccc(Cl)cc2)c2ccccc12 [oncrasin-1]" assayvalue=101
molecule=c1cc(-c2cnn3cc(-c4ccc(N5CCNCC5)cc4)cnc23)c2cccnc2c1 assayvalue=108
molecule="CC[C@H]1OC(=O)C[C@@H](O)[C@H](C)[C@@H](O[C@@H]2O[C@H](C)[C@@H](O[C@H]3C[C@@](C)(O)[C@@H](O)[C@H](C)O3)[C@H](N(C)C)[C@H]2O)[C@@H](CC=O)C[C@@H](C)C(=O)/C=C/C(C)=C/[C@@H]1CO[C@@H]1O[C@H](C)[C@@H](O)[C@@H](OC)[C@H]1OC [TYLOSIN TARTRATE]" assayvalue=99
molecule="COc1cccc2c1C(=O)c1c(O)c3c(c(O)c1C2=O)C[C@@](O)(C(C)=O)C[C@@H]3O[C@H]1C[C@H](N)[C@H](O)[C@H](C)O1 [daunorubicin]" assayvalue=108
molecule="c1cc(Nc2cc(C3CC3)n[nH]2)nc(Nc2ccc3[nH]cnc3c2)n1 [APY-29]" assayvalue=96.4
